Test system: human renal tubular epithelial cells HK-2
Test: MTT proliferation inhibition / toxicity, HK-2
Format: cell-based
Conditions: Homo sapiens; HK-2 cells, MTT, 48 h; read-out: Inhibitory activity (IC50) against proliferation, HK-2
Procedure: The anti-tumor activity of the compounds of the present invention was determined by the method of methyl thiazolyl tetrazolium (MTT), Bardoxolone Methyl (CDDO-Me) being selected as a positive control medicament. […] Methods: the cryopreserved cell strains were resuscitated and cultured in a CO2 incubator at a constant temperature of 37° C. with liquid being changed once daily. […] The amount of required cell suspension was calculated on the basis of 5×10^4 cells per well and the total number of wells. […]
Strictly below 500 nM in IC50: fulfilled. Otherwise: not fulfilled.

Strictly below 500 nM: is that where IC50 of "COc1ccc(/C=C/C(=O)N[C@]23CCC(C)(C)C[C@H]2[C@H]2C(=O)C=C4[C@@]5(C)C=C(C#N)C(=O)C(C)(C)[C@@H]5CC[C@@]4(C)[C@]2(C)CC3)cc1" sits?
not fulfilled

Let us now turn to "CC1(C)CC[C@]2(NC(=O)/C(C#N)=C/c3ccc(F)cc3)CC[C@]3(C)[C@H](C(=O)C=C4[C@@]5(C)C=C(C#N)C(=O)C(C)(C)[C@@H]5CC[C@]43C)[C@@H]2C1"
fulfilled

Now this one: "CC1(C)CC[C@]2(NC(=O)/C=C(\C#N)c3ccc(F)cc3)CC[C@]3(C)[C@H](C(=O)C=C4[C@@]5(C)C=C(C#N)C(=O)C(C)(C)[C@@H]5CC[C@]43C)[C@@H]2C1"
fulfilled

Same again, this time with "CC1(C)CC[C@]2(NC(=O)/C=C(\C#N)c3ccc(C(F)(F)F)cc3)CC[C@]3(C)[C@H](C(=O)C=C4[C@@]5(C)C=C(C#N)C(=O)C(C)(C)[C@@H]5CC[C@]43C)[C@@H]2C1"
not fulfilled

Request: "CC1(C)CC[C@]2(NC(=O)/C=C/c3ccc(F)cc3)CC[C@]3(C)[C@H](C(=O)C=C4[C@@]5(C)C=C(C#N)C(=O)C(C)(C)[C@@H]5CC[C@]43C)[C@@H]2C1"
not fulfilled

"CC1(C)CC[C@]2(NC(=O)/C=C/c3ccc(C(F)(F)F)cc3)CC[C@]3(C)[C@H](C(=O)C=C4[C@@]5(C)C=C(C#N)C(=O)C(C)(C)[C@@H]5CC[C@]43C)[C@@H]2C1" , same question.
not fulfilled

Now this one: "CC1(C)CC[C@]2(NC(=O)/C=C(\C#N)c3ccccc3)CC[C@]3(C)[C@H](C(=O)C=C4[C@@]5(C)C=C(C#N)C(=O)C(C)(C)[C@@H]5CC[C@]43C)[C@@H]2C1"
fulfilled

Do the same for "CC1(C)CC[C@]2(NC(=O)/C(C#N)=C/c3ccc(C(F)(F)F)cc3)CC[C@]3(C)[C@H](C(=O)C=C4[C@@]5(C)C=C(C#N)C(=O)C(C)(C)[C@@H]5CC[C@]43C)[C@@H]2C1" please
fulfilled

Then "CC1(C)CC[C@]2(NC(=O)/C(C#N)=C/c3ccc(Cl)cc3)CC[C@]3(C)[C@H](C(=O)C=C4[C@@]5(C)C=C(C#N)C(=O)C(C)(C)[C@@H]5CC[C@]43C)[C@@H]2C1" ?
not fulfilled

Param item: "CC1(C)CC[C@]2(NC(=O)/C=C(\C#N)c3ccc(Cl)cc3)CC[C@]3(C)[C@H](C(=O)C=C4[C@@]5(C)C=C(C#N)C(=O)C(C)(C)[C@@H]5CC[C@]43C)[C@@H]2C1"
not fulfilled

Next entry: "COc1ccc(/C(C#N)=C/C(=O)N[C@]23CCC(C)(C)C[C@H]2[C@H]2C(=O)C=C4[C@@]5(C)C=C(C#N)C(=O)C(C)(C)[C@@H]5CC[C@@]4(C)[C@]2(C)CC3)cc1"
fulfilled

Now consider "Cc1ccc(/C=C(\C#N)C(=O)N[C@]23CCC(C)(C)C[C@H]2[C@H]2C(=O)C=C4[C@@]5(C)C=C(C#N)C(=O)C(C)(C)[C@@H]5CC[C@@]4(C)[C@]2(C)CC3)cc1" .
fulfilled

Do the same for "Cc1ccc(/C=C/C(=O)N[C@]23CCC(C)(C)C[C@H]2[C@H]2C(=O)C=C4[C@@]5(C)C=C(C#N)C(=O)C(C)(C)[C@@H]5CC[C@@]4(C)[C@]2(C)CC3)cc1" please
not fulfilled

What about "CC1(C)CC[C@]2(NC(=O)/C(C#N)=C/c3ccccc3)CC[C@]3(C)[C@H](C(=O)C=C4[C@@]5(C)C=C(C#N)C(=O)C(C)(C)[C@@H]5CC[C@]43C)[C@@H]2C1" ?
not fulfilled

Note, next up: "Cc1ccc(/C(C#N)=C/C(=O)N[C@]23CCC(C)(C)C[C@H]2[C@H]2C(=O)C=C4[C@@]5(C)C=C(C#N)C(=O)C(C)(C)[C@@H]5CC[C@@]4(C)[C@]2(C)CC3)cc1"
not fulfilled

Value source: patent US20230023332A1
